- System: U-87MG ATCC
- EXPERIMENTAL_PROTOCOL: Inhibition of Nef-dependent HIV1 NL4-3 replication infected in human U87MG cells expressing CD4 and CXCR4 at 3 uM incubated for 1 hr measured after 4 days by immunoassay
- Format: cell-based
- ASSAY_CONTEXT: Human immunodeficiency virus 1
Activity calls are given as the source filed them. No cut-off for these calls is given here.
Classes used: label 1 = active, label 0 = inactive

SMILES_STR	GROUP
NC(=S)n1nc(-c2ccc([N+](=O)[O-])cc2)c(Cc2cccc(Cl)c2)c1O	label 1
NC(=S)n1nc(-c2ccc([N+](=O)[O-])cc2)c(CCc2cccc(Cl)c2)c1O	label 1
O=[N+]([O-])c1ccc(-c2n[nH]c(O)c2CCc2cccc(Cl)c2)cc1	label 0
O=[N+]([O-])c1ccc(-c2n[nH]c(O)c2Cc2cccc(Cl)c2)cc1	label 0

----------
- EXPERIMENTAL_PROTOCOL: Tmax in C3H mouse at 10 mg/kg, po administered through solution of 5% N-methyl -2-pyrrolidone and 5% solutol in saline by LC-MS analysis
- Type: ADME, organism-based
- ASSAY_CONTEXT: in vivo
Entries and their Tmax

SMILES_STR	Tmax
NC(=S)n1nc(-c2ccc([N+](=O)[O-])cc2)c(Cc2cccc(Cl)c2)c1O	60 min
NC(=S)n1nc(-c2ccc([N+](=O)[O-])cc2)c(/N=N/c2cccc(Cl)c2)c1O	30 min
NC(=S)n1nc(-c2ccc([N+](=O)[O-])cc2)c(CCc2cccc(Cl)c2)c1O	15 min
